Test: Metabolic stability in mouse liver microsomes
Assay type: in vitro ADME
Conditions: Mouse, Compound Conc = 0.5 μM
Description: Test compounds (0.5 μM) were incubated at 37° C. for up to 45 minutes in 50 mM of potassium phosphate buffer (pH 7.4) containing mouse liver microsomal protein (0.5 mg/mL) and an NADPH generating system (0.34 mg/mL β-nicotinamide adenine dinucleotide phosphate (NADP), 1.56 mg/mL glucose-6-phosphate, 1.2 units/mL glucose-6-phosphate dehydrogenase). […] Following completion of the experiment, the samples were analyzed by LC-MS/MS. […]
READOUT_LABEL: Intrinsic Clearance (CLint) (mL/min/g liver)
Only the number, expressed in mL/min/g liver, is required.

Some compounds with recorded Intrinsic Clearance (CLint) (mL/min/g liver):
CCOC(=O)c1ccc(NC23CC4CC(CC(C4)C2)C3)c(/N=C\c2cncnc2)c1	0.47
CCOC(=O)c1ccc(NC23CC4CC(CC(C4)C2)C3)c(NCc2cncnc2)c1	35.9
CCOc1ccc2ccc(=O)oc2c1 [Ethoxycoumarin, reference compound]	27.94

Next, consider the following compound.
Report measured Intrinsic Clearance (CLint) (mL/min/g liver); entry is CC(C)OC(=O)c1ccc(NC23CC4CC(CC(C4)C2)C3)c(/N=C\c2cncnc2)c1
0.94

====

system: HT-1080 cells; assay: Inhibition of erastin (10 μM)-induced death in HT-1080 cells (Alamar Blue); format: cell-based, human; conditions: Homo sapiens, HT-1080, SI Table 4, various R3 substitutions; read-out: EC50
Consider the cut-off 200 nM. If the recorded EC50 is strictly smaller, the label is criterion met; if not, the label is criterion not met.

Consider the following illustrative entries.
Nc1cc(C(=O)OCCN2CCOCC2)ccc1NC1CCCCC1	criterion not met
CC(C)(C)OC(=O)c1ccc(NC2CCCCCCC2)c(N)c1	criterion met
CCCCCCCCCCOC(=O)c1ccc(NC2CCCCC2)c(N)c1	criterion met
CC(C)(C)OC(=O)NCCOCCOC(=O)c1ccc(NC2CCCCC2)c(N)c1	criterion met
Nc1ccccc1NC1CCCCC1	criterion not met

Field: below-cutoff. Rule: recorded EC50 strictly less than 200 nM. Subject: COC(=O)c1ccc(NC2CCCCC2)c(N)c1
criterion met

====

Reported Elimination rate constant (k) values follow for various compounds
assay: Metabolic stability in mouse liver microsomes; assay type: in vitro ADME; conditions: Mouse, Compound Conc = 0.5 μM

Tell me measured Elimination rate constant (k) for CC(C)(C)OC(=O)c1ccc(NC23CC4CC(CC(C4)C2)C3)c(/N=C\c2cncnc2)c1 [SRS16-86] please.
<0.0048

Respond only with Elimination rate constant (k) recorded for CCOC(=O)c1ccc(NC23CC4CC(CC(C4)C2)C3)c(NCc2cncnc2)c1 [SRS16-41]
0.3149

====

Below: a set of entries, each annotated with reported half-life at 1 μM.
test: In vitro stability study in mouse plasma; format: in vitro ADME; settings: C57BL/4, mouse, plasma; read-out: T1/2 in mouse plasma

CC(C)(C)OC(=O)c1ccc(NC23CC4CC(CC(C4)C2)C3)c(/N=C\c2cncnc2)c1	> 2 h

Okay, now this compound:
Please look at this compound and report its half-life at 1 μM: CC(C)OC(=O)c1ccc(NC23CC4CC(CC(C4)C2)C3)c(/N=C\c2cncnc2)c1
< 0.25 h

====

test system: HT-1080 cells; assay: Inhibition of erastin (10 μM)-induced death in HT-1080 cells (Alamar Blue); assay type: cell-based, human; settings: Homo sapiens, HT-1080, SI Table 2, analogs with various hydrophobic moieties; read-out: EC50
Measured pEC50 accompanies every entry in the list below.
Schema: pEC50 number; meaning minus log10 of the concentration expressed in molar units.

CCOC(=O)c1ccc(NC2CCCCCCC2)c(N)c1 [SRS8-70]	7.10
CCCCCCCCNc1ccc(C(=O)OCC)cc1N [SRS8-94, ethyl 3-amino-4-(octylamino)benzoate]	7.10
CCOC(=O)c1ccc(Nc2ccccc2)c(N)c1 [SRS8-42, ethyl 3-amino-4-(phenylamino)benzoate]	6.70
CCOC(=O)c1ccc(NC2CCC(C)CC2)c(N)c1 (centres unmarked) [SRS8-48]	7.05

Kindly review the next molecule as well.
Check the records and state pEC50 for CCOC(=O)c1ccc(NC2CCCCCCCCCCC2)c(N)c1 [SRS9-06]
7.15

====

system: HT-1080 cells; test: Inhibition of erastin (10 μM)-induced death in HT-1080 cells (Alamar Blue); format: cell-based, human; conditions: Homo sapiens, HT-1080, SI Table 4, various R3 substitutions
READOUT_LABEL: EC50 (nM)
The reply should be a number in nM, with the unit left off.

Return EC50 (reported value) for this molecule: NCCOCCOC(=O)c1ccc(NC2CCCCC2)c(N)c1 [SRS8-43]
420

====

experiment: Metabolic stability in mouse liver microsomes; assay type: in vitro ADME; settings: Mouse, Compound Conc = 0.5 μM
READOUT_LABEL: Elimination rate constant (k)
Write the number on its own, no unit after it.

See these solved cases before continuing.
CCOc1ccc2ccc(=O)oc2c1 [Ethoxycoumarin, reference compound]	0.2661
CC(C)OC(=O)c1ccc(NC23CC4CC(CC(C4)C2)C3)c(/N=C\c2cncnc2)c1	0.0089

Give the measured Elimination rate constant (k) for CCOC(=O)c1ccc(NC23CC4CC(CC(C4)C2)C3)c(/N=C\c2cncnc2)c1
0.0045
